Test: folding stability dG unfold from trypsin proteolysis; higher = more stable
The label depends only on folding stability dG unfold: TRUE if it is at least 1 kcal/mol, FALSE if it is smaller.

Q) Answer whether folding stability dG unfold of SAGGSAGGMTVPITLPLDEYSPEEVEAKIKAIREEIEKKNPDKKISINVTLVPQPPEPTPENLRSAGGSAGG [r6_729_JUSTAS] is greater than or equal to 1 kcal/mol.
A) FALSE

Q) Answer whether folding stability dG unfold of SAGGSAMTIEKREDGYLVITVDVPPGTSPEELAERLKKLFPNEEVTVTVVKDGKLVKEFVIKAEDLSAGGSA [r15_1047_TrROS_Hall] is greater than or equal to 1 kcal/mol.
A) TRUE

Q) Answer whether folding stability dG unfold of SAGGIRIRFWVPSPEEAREMAETIAKWLMEEHPGAKIKIEPKKVEPNPDNGYYRVEVPIKIVLPGQPISAGG [r13_585_TrROS] is greater than or equal to 1 kcal/mol.
A) TRUE

Q) Answer whether folding stability dG unfold of SMPLLVKVDTPEQREKLLKVLEEIEKETDIKIELVSEHPDGKYEFLIEAPLEEAVKIAKKLKEAGNVEIVSA [r9_472_TrMRF] is greater than or equal to 1 kcal/mol.
A) TRUE

Q) Answer whether folding stability dG unfold of SAGGMKIEVEVSDSDIESAAERIAKEVYEKIKAEGKNEDVEVTLTLPNGTRYRIVVDGKGNVKEIIESSAGG [r13_965_JUSTAS] is greater than or equal to 1 kcal/mol.
A) TRUE

Q) Answer whether folding stability dG unfold of SAGGSAMSPEEVEEKIKEIAKKLGVEIEVKVEISPEGGIKITVKVNDKFDINEIKKGIEEALGIKLSAGGSA [r15_807_JUSTAS] is greater than or equal to 1 kcal/mol.
A) TRUE

Q) Answer whether folding stability dG unfold of SAGGSAGGSGMMYKVTVEIYNPANGEKIGTIEREVTSEEEAKAEIEKELPLENVKVKITIEGPSAGGSAGGS [r12_578_JUSTAS] is greater than or equal to 1 kcal/mol.
A) FALSE

Q) Answer whether folding stability dG unfold of SAGGSAGGSAGGSNDNVVPITILFVDPGKDDRLYLREIRLRIYENGDIEAEVKVYELPLSAGGSAGGSAGGS [r10_598_TrMRF] is greater than or equal to 1 kcal/mol.
A) TRUE

Q) Answer whether folding stability dG unfold of SAGGSAGGMKTFTIDELKKLAEELGAEIYYDKDTNTIYIRTPGKIFRITINDDGTVTIEELPPKSAGGSAGG [r6_155_TrROS_Hall] is greater than or equal to 1 kcal/mol.
A) TRUE

Q) Answer whether folding stability dG unfold of SAGGSAGGSAGGMTPIEKEEPHHHMTFTREGDTVSLETFPGSGSIRKTLPSEEEVEKLLSAGGSAGGSAGGS [r10_1104_JUSTAS] is greater than or equal to 1 kcal/mol.
A) FALSE

Q) Answer whether folding stability dG unfold of SAGGSAGGSAGGDDDWRIMINIEIWPYPNYVRIRFPIMIIPPDGKLIGSVEVTFWIPANDSAGGSAGGSAGG [r7_812_TrROS] is greater than or equal to 1 kcal/mol.
A) TRUE

Q) Answer whether folding stability dG unfold of SAGGSAGGELEELPGLKVVAVFELPGNRRLVLFEAEGGRYLLLVEGEGTRLVPVPEDVSLEELASAGGSAGG [r6_680_TrMRF] is greater than or equal to 1 kcal/mol.
A) TRUE

Q) Answer whether folding stability dG unfold of SAGGSAGGSGEELRNLLANVKKVTVFPNADGGLGVLIELEPEEPEERTIVLNYDQLAELLALGSAGGSAGGS [r12_466_TrMRF] is greater than or equal to 1 kcal/mol.
A) FALSE

Q) Answer whether folding stability dG unfold of SAGSSMSVTIKVTIRSPTRTEEIEITVSPSESLEEAIKKVAEKLPPDYSITITFEGGETVTIPIPKELLSAG [r5_77_JUSTAS] is greater than or equal to 1 kcal/mol.
A) TRUE

Q) Answer whether folding stability dG unfold of SAGGSAGGSKPKEIETVTLKLTLKDPETGEEIEVTVELTRVRVDGKEYLILRVTDPDGKEIELSAGGSAGGS [r12_283_TrROS_Hall] is greater than or equal to 1 kcal/mol.
A) TRUE

Q) Answer whether folding stability dG unfold of SAGGSAGGSEIPDIEITIDSIEFFPDGTVRITATVRFPGGGTAKITLTLPAPPAEYEPPSDLLSAGGSAGGS [r12_558_TrMRF] is greater than or equal to 1 kcal/mol.
A) TRUE

Q) Answer whether folding stability dG unfold of SAGGSAGGSAGWGWISVSITFEMEHYDEDGKPKHEHPMPMTIQIPVVRVDPKNGKLEPMPSAGGSAGGSAGG [r17_413_TrROS] is greater than or equal to 1 kcal/mol.
A) TRUE

Q) Answer whether folding stability dG unfold of SAGGSAGGSAEKTLTVVIKVKPNKTPEEIAKEIKKKLNLPNVEIVSIEYDKETNYITIKVKVSAGGSAGGSA [r18_481_TrROS_Hall] is greater than or equal to 1 kcal/mol.
A) TRUE

Q) Answer whether folding stability dG unfold of SKTYTAEEIKKLFPNIKKVEVKDGKVRLTVENENGEKFEIEITFEAPKPEPEVEEEVEKKKEEELSEEDLSA [r9_427_TrROS_Hall] is greater than or equal to 1 kcal/mol.
A) TRUE

Q) Answer whether folding stability dG unfold of SAGGSAGGSAGGMPPGTVVRSEVVRTETFTETITLPSGETATTTVTTTTTTEVEVEQPLSAGGSAGGSAGGS [r10_297_JUSTAS] is greater than or equal to 1 kcal/mol.
A) FALSE

Q) Answer whether folding stability dG unfold of SAGGSAGGSMETVTVLLNTPGTPVTFTFPVPAGVGEEAVKELVRKALPEVEIEVVEITTTPAASAGGSAGGS [r12_427_JUSTAS] is greater than or equal to 1 kcal/mol.
A) FALSE

Q) Answer whether folding stability dG unfold of SAGGSAGMTITSATEVGTTTFNGGSITHYTLTTPSGKTITGEVDPATGTLTISFPETGLSITIPPKSAGGSA [r15_159_JUSTAS] is greater than or equal to 1 kcal/mol.
A) TRUE

Q) Answer whether folding stability dG unfold of SAGGSAGGSAGMTTLTVTVPAPPDALTPEDVVALLRPEYPDATITVTREGDTLVVTVTVASAGGSAGGSAGG [r11_7_JUSTAS] is greater than or equal to 1 kcal/mol.
A) TRUE

Q) Answer whether folding stability dG unfold of SWTFPILIRFPFDDPEDLDKAREMAEDLVRYLAEEFGWPVKIDKVKYERNPENGWVWIRAEITVTPPDDVSA [r9_105_TrROS] is greater than or equal to 1 kcal/mol.
A) TRUE

Q) Answer whether folding stability dG unfold of SAGGSAGGGDEVKTFKAKVKLVSVDPETGEQLVLAEVPDGKPILVKVPKSFPLKEDEIVEFELSSAGGSAGG [r6_68_TrMRF] is greater than or equal to 1 kcal/mol.
A) TRUE

Q) Answer whether folding stability dG unfold of SAGGSAGGSAMSVVVKYTVLLTDPVTGKTTVVPVTATLPVSDGTAKTIEEIVAEHPNYEILESAGGSAGGSA [r18_267_JUSTAS] is greater than or equal to 1 kcal/mol.
A) TRUE

Q) Answer whether folding stability dG unfold of SAGGSAKSIKAEELAKEIADLMQERNPNWRVEIEPQPGPGPMITVKIYHRDPNNGDQQPINTFTIRSAGGSA [r15_682_TrROS] is greater than or equal to 1 kcal/mol.
A) FALSE
